system: U2OS; assay: Multiplex assay against U2OS; type: toxicity, cell-based; conditions: human, 12 h, 1 µM, compound concentration 1 uM, replicate 2
Use 1 when the recorded Population Hoechst High Intensity Objects (%) is no lower than 10%; use 0 when it is lower.

Some solved entries appear below for comparison.
INSERT INTO measurements (molecule, label) VALUES
  ('CNc1nc(NCc2ccc(NS(C)(=O)=O)cc2Cl)cc(-c2ccccn2)n1', 0),
  ('CC[C@H](C)C(=O)O[C@H]1C[C@@H](C)C=C2C=C[C@H](C)[C@H](CC[C@@H]3C[C@@H](O)CC(=O)O3)[C@H]21', 1),
  ('C=CC(=O)Nc1cc2c(Nc3ccc(F)c(Cl)c3)ncnc2cc1OCCCN1CCOCC1.Cl.Cl [CANERTINIB DIHYDROCHLORIDE]', 1);

Lookup: Reported Population Hoechst High Intensity Objects (%) at or above 10%? `CCN(CC)CCCCNc1ncc2cc(-c3cc(OC)cc(OC)c3)c(NC(=O)NC(C)(C)C)nc2n1`
Found: 1

###

system: HEK-293T; experiment: Multiplex assay against HEK293T; format: toxicity, cell-based; conditions: human, 24 h, 1 µM, compound concentration 1 uM, replicate 1
readout: Population Hoechst High Intensity Objects (%)
Write it as a number; the unit % goes unstated.

Consider the reported Population Hoechst High Intensity Objects (%) for these molecules:
INSERT INTO assay_data (molecule, value) VALUES
  ('NC(=O)Nc1cc(-c2cccc(F)c2)sc1C(=O)N[C@H]1CCCNC1', 12),
  ('CC[C@H](C)C(=O)O[C@H]1C[C@@H](C)C=C2C=C[C@H](C)[C@H](CC[C@@H]3C[C@@H](O)CC(=O)O3)[C@H]21', 19),
  ('C=CC(=O)Nc1cc2c(Nc3ccc(F)c(Cl)c3)ncnc2cc1OCCCN1CCOCC1.Cl.Cl [CANERTINIB DIHYDROCHLORIDE]', 24),
  ('CN1CCCC(n2nc(Cc3ccc(Cl)cc3)c3ccccc3c2=O)CC1.Cl (stereo not given) [AZELASTINE HYDROCHLORIDE]', 11),
  ('O=C1NCN(c2ccccc2)C12CCN(CCCOc1ccc(F)cc1)CC2 [SPIRAMIDE]', 10);

Lookup: For the molecule shown here, `C[C@@]1(C(=O)Nc2ccc(F)nc2)CCCN1c1nc(Nc2cc(C3CC3)n[nH]2)c2cccn2n1` , give the reported Population Hoechst High Intensity Objects (%).
Found: 20

Lookup: For the molecule shown here, `Cc1c(-c2ccc(O)cc2)n(Cc2ccc(OCCN3CCCCCC3)cc2)c2ccc(O)cc12` , give the reported Population Hoechst High Intensity Objects (%).
Found: 13

Lookup: For the molecule shown here, `Cc1csc2c(N[C@@H](C)CN3CCN(S(=O)(=O)c4ccc(Cl)c(Cl)c4)CC3)ncnc12` , give the reported Population Hoechst High Intensity Objects (%).
Found: 18

Lookup: For the molecule shown here, `CCN(CC)CCCCNc1ncc2cc(-c3cc(OC)cc(OC)c3)c(NC(=O)NC(C)(C)C)nc2n1` , give the reported Population Hoechst High Intensity Objects (%).
Found: 55

Lookup: For the molecule shown here, `CNc1nc(NCc2ccc(NS(C)(=O)=O)cc2Cl)cc(-c2ccccn2)n1` , give the reported Population Hoechst High Intensity Objects (%).
Found: 18
